Biological target: T1, flag-tagged soluble TL3 (amino acids 105-251 of SEQ ID NO:234) (Homo sapiens (Human), UniProt O75888 105-250)
T1 construct: Heterologous flag-tagged control protein, immobilized in the ELISA; also called flagged tagged TL-3; not shown: Flag tag
T1 sequence: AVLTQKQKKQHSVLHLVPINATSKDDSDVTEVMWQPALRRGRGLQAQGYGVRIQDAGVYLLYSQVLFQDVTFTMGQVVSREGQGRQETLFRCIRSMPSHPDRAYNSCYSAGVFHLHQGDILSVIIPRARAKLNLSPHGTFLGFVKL
Assay: phage ELISA on immobilized flag-tagged soluble TL3
measure: binding result

binder="GMBC642 (scFv) scFv: QVQLQQSGAEVKKPGASVKVSCKASGYTFTIHYMHWVRQAPGQGLEWMGIINPGDGSTSYAQNFQGRVTMTRDTSTSTVYMELSSLRSEDTAVYYCARAGRTVTSHFDYWGRGTLATVSSGGGGSGGGGSGGGGSSELTQDPAVSVALGQTVRITCQGDSLRSYYASWYQQKPGQAPVLVIYGKNNRPSGIPDRFSGSSSGNTASLTITGAQAEDEADYYCNSRDSSGNHVVFGGGTKLTVLG" measure="binding result" result="no binding"
binder="GMCC125 (scFv) scFv: EVQLVQSGGGLVKPGGSLRLSCAASGFSFSDYSMHWIRQAPGKGLEWLSHIGTSTSYTNYADSVKGRFTISRDNAKNSFYLQMNSLRVDDTAVYFCARGFGGLRGYFDYWGQGTLVTVSSGGGGSGGGGSGGGGSALSSELTQDPAVSVALGQTVKITCQGDRLRRFYASWYQQKPGQAPLLLIYGKNSRPSGIPDRFSGSTSGATASLTITGAQAEDEADYYCNSRDSSGSLHSVFGTGTKVTVLG" measure="binding result" result="no binding"
binder="GMBC607 (scFv) scFv: EVQLVQSGGGLVKPGGSLRLSCAASGFTFSDAWMNWVRQAPGKGLEWVGRIKSKGSGGTIDYAAPVKDRFTISRDDSKNMLYLEMNSLKTEDTALYYCTWDWDFYYGMNVWGQGTMVTVSSGGGGSGGGGSGGGGSQSVLTQPASVSGSPGQSITISCTGTSSDVGDYNYVSWYQQHPGKAPKLMIYEGSKRPSGVSNRFSGSKSGNTASLTISGLQAEDEADYYCSSYTTRSTRVFGGGTKLTVLG" measure="binding result" result="no binding"
binder="GMBC689 (scFv) scFv: QVQLVESGGGLVKPGGSLRLSCAASGFTFSDAWMNWVRQAPGKGLEWVGRIKSKGSGGTIDYAAPVKDRFTISRDDSKNTLYLQMNSLKTEDTALYYCTWDWDFYYGMNVWGQGTLVTVSSGGGGSGGGGSGGGGSQSVLTQPPSASGSPGQSVTISCTGTSSDVGGYNYVSWYQQHPGKAPKFMIYDVSKRPSGVSNRFSGSKSGNTASLTISGVQAEDEADYYCSSYTSASTVVFGGGTKLTVLG" measure="binding result" result="no binding"
binder="GMBC617 (scFv) scFv: EVQLVETGGGLVQPGGSLRLSCAASGFTVSSNYMSWVRQAPGKGLEWVSVIYSGGSTYYADSVKGRFTISRHNSKNTLYLQMNSLRAEDTAVYYCARGLWFGELLYWGQGTLVTVSSGGGGSGGGGSGGGGSQSALTQPASVSGSRGQSITISCTGTTGDVGGYDYVSWYQQHPGKAPKLLIYGNSNRPSGVPDRFSASKSGNTASLTISGLQAEDEADYFCSTYAPPGIIMFGGGTKLTVLG" measure="binding result" result="no binding"
binder="GMBC638 (scFv) scFv: QVQLVQSGGGLVKPGESLRLSCEASGFEFNYAWMSWVRQAPGKGLEWVGRSRSVASGGTTDYAAPLQDRFTISRDDSKNTLYLQVNSLKIEDTGVYFCKWEKSEYYGMDVWGRGTMVTVSSGGGGSGGGGSGGGGSQSVLTQPASVSGSPGQSITISCTGTSSDVGGYNYVSWYQQHPGKAPKLMIYEGSKRPSGVSNRFSGSKSGNTASLTISGLQAEDEADYYCSSYTTRSTRVFGGGTKLTVLG" measure="binding result" result="no binding"
binder="GMBC628 (scFv) scFv: QVQLQQSGAEVKKPGASVRVSCKASGYTFTSYGFSWVRQAPGQRLEWMGWISAYKGNANYAEKFQGRVTMTTDTSTNTAYMELRSLRSDDTAVYYCARTRISVAGLDYYYYGLDVWGRGTLVTVSSGGGGSGGGGSGGGGSSELTQDPAVSVALGQTVRITCQGDSLRSYYTNWFQQKPGQAPLLVVYAKNNRPSGIPDRFSGSSSGNTASLTITGAQAEDEADYYCNSRDSSGNHVVFGGGTKLTVLG" measure="binding result" result="no binding"
binder="GMBC727 (scFv) scFv: EVQLVESGGDTVKPGGSLRLSCAGSGFTFSDAWMNWVRQAPGKGLEWVGRMKSKGSGGTRDYAAPVNGRFTISRDDSKNTLYLQMNSLNTEDTGVYYCTWDWDFYYGMNVWGRGTLVTVSSGGGGSGGGGSGGGGSQSVLTQPASVSGSPGQSITISCTGTSSDVGGYNYVSWYQQHPGKAPKLMIYEGSKRPSGVSNRFSGSKSGNTASLTISGLQAEDEADYYCSSYTTRSTRVFGGGTKLTVLG" measure="binding result" result="no binding"
binder="GMBC649 (scFv) scFv: QVQLVQSGGGLVKPGGSLRLSCAASGFTFSDAWMNWVRQAPGKGLEWVGRIKSKGSGGTIDYAAPVKDRFTISRDDSKNTLYLQMNSLKTEDTALYYCTWDWDFYYGMNVWGRGTLVTVSSGGGGSGGGGSGGGGSQSVLTQPASVSGSPGQSITISCTGTSSDVGGYNYVSWYQQHPGKAPKLMIYEGSKRPSGVSNRFSGSKSGNTASLTISGLQAEDEADYYCSSYTTRSTRVFGGGTKLTVLG" measure="binding result" result="no binding"
binder="GMBC651 (scFv) scFv: EVQLVESGGGLVQPGGSLRLSCAASGFTFSDAWMNWVRQAPGKGLEWVGRIKSKGSGGTIDYAAPVKDRFTISRDDSKNTLYLQMNSLKTEDTALYYCTWDWDFYYGMNVWGRGTMVTVSSGGGGSGGGGSGGGGSQSVLTQPASVSGSPGQSITISCTGTSSDVGGYNYVSWYQQHPGKAPKLMIYEGSKRPSGVSNRFSGSKSGNTASLTISGLQAEDEADYYCSSYTTRSTRVFGGGTKLTVLG" measure="binding result" result="no binding"
